ASSAY_INFO: inhibitors of VEEV TC-83 cytopathic effect, confirmation, Vero cells (AID 588727)
COND: VEEV TC-83 cytopathic effect inhibition, at 20 µM; active compounds read high unless noted
About 450 (0.13%) of roughly 350,000 compounds were called active. Not all results are given here. Entries with a potency or affinity are not part of this list.
PARAMETER_MEASURED: inhibition (%)
The reply should be a number in %, with the unit left off.

q: May I ask what inhibition has been recorded for O=C(Nc1ccccc1SCC1CSc2nc3ccccc3c(=O)n21)c1ccccc1 (centres undefined) ?
a: 7.04

q: Consider the compound Nc1ccccc1SCC1CSc2nc3ccccc3c(=O)n21 (centres undefined) and give its measured inhibition.
a: 1.18

###

inhibition values for the molecules below.
ASSAY_INFO: inhibitors of VEEV TC-83 cytopathic effect, confirmation, Vero cells (AID 588727)
COND: VEEV TC-83 cytopathic effect inhibition, at 20 µM; active compounds read high unless noted
Out of some 350,000 compounds screened, about 450 (0.13%) were called active. A selection follows. Results with a measured potency or affinity are listed apart.
Number only, in %; omit the unit.

Completed entries (count: 3):
q: Data request, read-out inhibition, for O=C(CSc1nnc(Cc2ccccc2)c(=O)[nH]1)Nc1ccccc1
a: 1.19

q: For the molecule COc1ccc(NC(=O)CSc2nc3ccccc3c(=O)n2CCC(=O)N2CCCCC2)cc1 , what inhibition is on record?
a: 10.7

q: Report inhibition for CN(C(=O)COC(=O)/C=C/c1ccc(S(=O)(=O)N2CCc3ccccc32)cc1)C1CCS(=O)(=O)C1 (centres undefined) please.
a: 0.84

Now for a further molecule.
q: If you can, please state the reported inhibition value of CCCNC(=O)CSc1nnc(NC(=O)C2CC(=O)N(c3ccccc3OC)C2)s1 (centres undefined) .
a: 0.13

###

ASSAY_INFO: inhibitors of VEEV TC-83 cytopathic effect, confirmation, Vero cells (AID 588727)
COND: VEEV TC-83 cytopathic effect inhibition, at 20 µM; active compounds read high unless noted
Among all 350,000 compounds or so, about 450 (0.13%) were called active. The list is a sample of the results. Results with a measured potency or affinity are listed apart.
Decide using inhibition: a value greater than or equal to 8% is yes (1), a smaller one is no (0).

Record excerpt, results attached:
q: Can CCCCNC(=O)COC(=O)c1ccc(SC)cc1OC be said to have inhibition at or above 8%?
a: no (0)

q: Test whether the molecule CCN(Cc1ccccc1)C(=O)c1ccc(N(C)S(=O)(=O)c2ccc(C)cc2)cc1 records inhibition of 8% or higher.
a: yes (1)

q: Is it the case that CCc1ccc(N2CC(O)(c3cccs3)[N+]3=C2SCCC3)cc1 (stereo not given) has inhibition reaching or exceeding 8%?
a: no (0)

Okay, next one:
q: Could you please find out whether OC1(c2cccs2)CN(c2ccc(Cl)cc2)C2=[N+]1CCCS2 (stereo not given) has inhibition that meets 8% or exceeds it?
a: no (0)

###

Reported values of inhibition for individual entries
ASSAY_INFO: inhibitors of VEEV TC-83 cytopathic effect, confirmation, Vero cells (AID 588727)
COND: VEEV TC-83 cytopathic effect inhibition, at 20 µM; active compounds read high unless noted
The whole screen tested about 350,000 compounds, of which about 450 (0.13%) were called active. The list is a sample of the results. Results with a measured potency or affinity are listed apart.
Give the value in % but do not write % after it.

q: Request the reported inhibition associated with Cc1cccc(C(=O)NNC(=S)NC(=O)c2ccccc2)c1
a: 46.7

q: Param item = COc1ccc(/C=C/C(=O)c2cc(Cl)cc(Cl)c2O)c(OC)c1 ; retrieve measured inhibition.
a: 0.43

New cases:
q: Given the entry Cc1nn(C)c(C(=O)Nc2ccn(C34CC5CC(CC(C5)C3)C4)n2)c1[N+](=O)[O-] , report its measured inhibition.
a: 0.3

q: Name the recorded inhibition for CCc1ccc(-c2nc(CSCC(=O)NCCCN3CCCC3=O)c(C)o2)cc1 .
a: 3.51

q: Name the reported inhibition value associated with the compound COc1cccc(/C=C2/CCC(CN(C)C)C2=O)c1 (configuration not stated)
a: 48.7

q: Record request: inhibition value, item CC(C)=N/N=C1/NC(=O)C(Cc2ccccc2)S1 (configuration not stated)
a: 2.54

q: Value lookup for inhibition; key = OCC1(CCOc2ccccc2)CCN(Cc2cn[nH]c2-c2ccc(F)cc2)CC1
a: 2.7
